TEST NAME: Plasma pharmacokinetics in male and female SD rats after single intravenous and intragastric administration
Type: in vivo
SETUP CONDITIONS: rat, female SD rats, single intragastric (PO) 4.0 mg/kg, read-out: peak time Tmax
ATTRIBUTE MEASURED: Tmax (min)

>>> number("CC(C)(Sc1nnc(Br)n1-c1sc(C2CC2)c2c1CCC(F)(F)C2)C(=O)O")
40

---

TEST NAME: Plasma pharmacokinetics in male and female SD rats after single intravenous and intragastric administration
Type: in vivo
SETUP CONDITIONS: rat, male SD rats, PO 4.0 mg/kg vs IV 2.0 mg/kg
ATTRIBUTE MEASURED: bioavailability (%)

>>> number("CC(C)(Sc1nnc(Br)n1-c1sc(C2CC2)c2c1CCC(F)(F)C2)C(=O)O")
35.6
